Hey, just so you know, these numbers are from patent US8450352B2.

Where a name gives a salt, the structure may show the parent alone.
QUANTITY: melting point

Example cases with answers are listed next.
MOLECULE | melting point
CCOc1ccc(-c2nc(/C=C/C(=O)c3ccccc3OC)cs2)cc1OCC | 130 to 131 °C
CCOc1ccc(-c2nc(CCC(=O)c3ccccc3C(=O)OC)cs2)cc1OCC | 91.7 to 92.9 °C
CCOc1ccc(-c2nc(CCC(=O)c3ccccc3O)cs2)cc1OCC | 113.7 to 114.9 °C
CCOc1ccc(-c2nc(CCC(=O)c3ccccc3C(F)(F)F)cs2)cc1OCC | 91.7 to 93 °C
COc1ccc(-c2nc(/C=C/C(=O)c3cc(O)cc(O)c3)cs2)cc1OC (as salt: hydrochloride) | 164 to 168 °C
CCOc1ccc(CC(=O)Cc2csc(-c3ccc(OC)c(OC)c3)n2)cc1OCC | 141.3 to 142.4 °C
CCOc1ccc(-c2nc(CCC(=O)c3cc(Cl)ccc3OC)cs2)cc1OCC | 90.2 to 92 °C

Problem: Could you please provide reported melting point for `CCOc1ccc(-c2nc(/C=C/C(=O)c3c(O)cc(O)cc3O)cs2)cc1OCC` ? Thanks!
Solution: 188 to 189 °C

====

Each entry below lists one item and its recorded melting point value.
Structures can show the parent of a compound that is named as a salt.

Example cases with answers are listed next.
MOLECULE | QUANTITY | TEST RESULT
CCOc1ccc(-c2nc(CCC(=O)c3cc(OC)ccc3OC)cs2)cc1OCC [Example 95] | melting point | 97.8 to 98.5 °C
CCOc1ccc(-c2nc(/C=C/C(=O)c3cc(OC)c(OC)c(OC)c3)cs2)cc1OCC [Example 11] | melting point | 155 to 156 °C
CCOc1ccc(C(=O)CCc2csc(-c3ccc(OC)c(OC)c3)n2)cc1OCC [Example 93] | melting point | 141.3 to 142.4 °C

Problem: Could you please provide reported melting point for CCOc1ccc(-c2nc(/C=C/C(=O)c3ccc(F)cc3)cs2)cc1OCC [Example 25] ? Thanks!
Solution: 116 to 121 °C

Problem: Could you please provide reported melting point for CCOc1ccc(-c2nc(CCC(=O)c3ccccc3Cl)cs2)cc1OCC [Example 104] ? Thanks!
Solution: 64.4 to 65.1 °C

Problem: Could you please provide reported melting point for CCOc1ccc(-c2nc(/C=C/C(=O)c3cc(Cl)c(N)c(Cl)c3)cs2)cc1OCC (as salt: hydrochloride) [Example 12] ? Thanks!
Solution: 165 to 168 °C

Problem: Could you please provide reported melting point for CCOc1ccc(-c2nc(CCC(=O)c3ccc(O)c(O)c3)cs2)cc1OCC (as salt: hydrochloride) [Example 92] ? Thanks!
Solution: 153.2 to 153.8 °C

Problem: Could you please provide reported melting point for CCOc1ccc(-c2nc(/C=C/C(=O)c3ccc(OC(C)=O)c(OC(C)=O)c3)cs2)cc1OCC [Example 8] ? Thanks!
Solution: 139 to 140 °C

====

Where a name gives a salt, the structure may show the parent alone.
Each entry below lists one item and its recorded melting point value.

MOLECULE | melting point
CCOc1ccc(-c2nc(CCC(=O)c3ccccc3C)cs2)cc1OCC | 107.1 to 107.4 °C
CCOc1ccc(-c2nc(/C=C/C(=O)c3ccc([N+](=O)[O-])cc3)cs2)cc1OCC | 125 to 127 °C
CCOc1ccc(-c2nc(/C=C/C(=O)c3ccccc3[N+](=O)[O-])cs2)cc1OCC | 142 to 143 °C
CCOc1ccc(-c2nc(/C=C/C(=O)c3ccc(OC)c(OC)c3)cs2)cc1OCC | 152 to 153 °C
CCOc1ccc(-c2nc(/C=C/C(=O)c3ccccc3)cs2)cc1OCC | 129 to 130 °C

Problem: Could you please provide reported melting point for COc1ccc(-c2nc(/C=C/C(=O)c3ccc(O)c(O)c3)cs2)cc1OC (as salt: hydrochloride) ? Thanks!
Solution: 162 to 165 °C

Problem: Could you please provide reported melting point for `CCOc1ccc(-c2nc(/C=C/C(=O)c3cccc(O)c3)cs2)cc1OCC` ? Thanks!
Solution: 144.5 to 146 °C

Problem: Could you please provide reported melting point for `CCOc1ccc(-c2nc(/C=C/C(=O)c3ccc(O)c(C(=O)O)c3)cs2)cc1OCC` ? Thanks!
Solution: 195 to 196 °C

Problem: Could you please provide reported melting point for `CCOc1ccc(-c2nc(CCC(=O)c3ccccc3OCC)cs2)cc1OCC` ? Thanks!
Solution: 84.3 to 86.1 °C

Problem: Could you please provide reported melting point for `CCOc1ccc(-c2nc(CCC(=O)c3nccs3)cs2)cc1OCC` ? Thanks!
Solution: 93.1 to 94.4 °C

Problem: Could you please provide reported melting point for `CCOc1ccc(-c2nc(CCC(=O)c3ccccc3Br)cs2)cc1OCC` ? Thanks!
Solution: 66.1 to 67.9 °C

Problem: Could you please provide reported melting point for `CCOc1ccc(-c2nc(CCC(=O)c3ncccc3OC)cs2)cc1OCC` ? Thanks!
Solution: 79.2 to 79.7 °C

Problem: Could you please provide reported melting point for `CCOc1ccc(-c2nc(/C=C/C(=O)c3ccc(C(=O)OC)cc3)cs2)cc1OCC` ? Thanks!
Solution: 150 to 151 °C

Problem: Could you please provide reported melting point for `CCOc1ccc(-c2nc(/C=C/C(=O)c3ccc(NC(C)=O)cc3)cs2)cc1OCC` ? Thanks!
Solution: 199.5 to 201.5 °C

Problem: Could you please provide reported melting point for `CCOc1ccc(-c2nc(CCC(=O)c3ccccc3C#N)cs2)cc1OCC` ? Thanks!
Solution: 113.7 to 114.8 °C

Problem: Could you please provide reported melting point for `CCOc1ccc(-c2nc(CCC(=O)c3ccccc3OC)cs2)cc1OCC` ? Thanks!
Solution: 68.9 to 69.3 °C
